Values from ChEMBL document CHEMBL1138468

assay: Plasma clearance in monkey at 0.5 mg/kg, iv and 1 mg/kg, po; assay type: ADME, organism-based, Macaca mulatta; settings: rhesus monkey
ASSAY_ENDPOINT: clearance (mL/min/kg)
Unit mL/min/kg implied. Number only.

Tell me the measured clearance of `C[C@@H](O[C@H]1CC[C@@H]2CN(C3=CC(=O)CC3)C[C@H]2[C@@H]1c1ccc(F)cc1)c1cc(C(F)(F)F)cc(C(F)(F)F)c1` , please. 1

---

biological target: Substance-P receptor (Homo sapiens, UniProt P25103); assay: Displacement of [125I]substance P human recombinant NK1 receptor expressed in CHO cells in absence of human serum albumin
Sequence (P25103 whole entry): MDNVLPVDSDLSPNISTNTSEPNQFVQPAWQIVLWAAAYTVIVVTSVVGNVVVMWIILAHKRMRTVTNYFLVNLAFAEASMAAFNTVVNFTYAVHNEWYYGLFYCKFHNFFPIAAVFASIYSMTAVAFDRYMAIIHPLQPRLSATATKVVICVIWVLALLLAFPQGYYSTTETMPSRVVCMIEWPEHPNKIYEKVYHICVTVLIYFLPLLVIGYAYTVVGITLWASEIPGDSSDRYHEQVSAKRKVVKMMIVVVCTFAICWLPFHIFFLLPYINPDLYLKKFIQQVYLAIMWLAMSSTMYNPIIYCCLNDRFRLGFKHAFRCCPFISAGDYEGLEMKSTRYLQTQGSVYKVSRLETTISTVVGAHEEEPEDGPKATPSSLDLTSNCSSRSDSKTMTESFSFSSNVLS
ASSAY_ENDPOINT: IC50 (nM)
Unit nM implied. Number only.

>>> print(df.to_string())
                                   molecule  experimental_value
0  CC(=O)N1C[C@H]2CC[C@H](O[C@H](C)c3cc(C(F)(F)F)cc(C(F)(F)F)c3)[C@@H](c3ccc(F)cc3)[C@@H]2C1                0.11
1  C[C@@H](O[C@H]1CC[C@@H]2CN(c3cnccn3)C[C@H]2[C@@H]1c1ccc(F)cc1)c1cc(C(F)(F)F)cc(C(F)(F)F)c1               0.525
2  C[C@@H](O[C@H]1CC[C@@H]2CN(C)C[C@H]2[C@@H]1c1ccc(F)cc1)c1cc(C(F)(F)F)cc(C(F)(F)F)c1               0.255

Tell me the measured IC50 of `C[C@@H](O[C@H]1CC[C@@H]2CN(C3=CC(=O)CCC3)C[C@H]2[C@@H]1c1ccc(F)cc1)c1cc(C(F)(F)F)cc(C(F)(F)F)c1` , please. 0.13

---

test system: Gerbillinae; test: in iv dosed gerbils plasma assessed as inhibition of GR-73632-induced foot tapping after 24 hrs
ASSAY_ENDPOINT: pIC50
In simple prose, pIC50 is minus the logarithm base ten of a concentration in moles per litre.

Tell me the measured pIC50 of `C[C@@H](O[C@H]1CC[C@@H]2CN(C3=CC(=O)CC3)C[C@H]2[C@@H]1c1ccc(F)cc1)c1cc(C(F)(F)F)cc(C(F)(F)F)c1` , please. 8.22

---

molecular target: Cytochrome P450 2C9 (Homo sapiens)
Sequence (P11712 whole entry): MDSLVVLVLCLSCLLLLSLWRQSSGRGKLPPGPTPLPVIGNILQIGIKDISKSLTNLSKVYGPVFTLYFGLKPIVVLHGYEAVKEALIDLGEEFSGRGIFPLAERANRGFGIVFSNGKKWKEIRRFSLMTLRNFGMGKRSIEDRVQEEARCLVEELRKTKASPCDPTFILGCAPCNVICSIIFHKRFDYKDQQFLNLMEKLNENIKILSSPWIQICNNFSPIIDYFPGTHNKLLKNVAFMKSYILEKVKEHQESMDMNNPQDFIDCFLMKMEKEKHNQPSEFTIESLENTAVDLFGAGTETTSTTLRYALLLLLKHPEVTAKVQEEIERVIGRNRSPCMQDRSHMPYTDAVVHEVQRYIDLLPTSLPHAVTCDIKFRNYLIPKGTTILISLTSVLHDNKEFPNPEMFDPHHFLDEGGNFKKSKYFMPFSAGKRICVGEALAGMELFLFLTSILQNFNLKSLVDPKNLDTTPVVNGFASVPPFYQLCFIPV
ASSAY_ENDPOINT: IC50
Record the result as a number with its unit.

Tell me the measured IC50 of C[C@@H](O[C@H]1CC[C@@H]2CN(C3=CC(=O)CC3)C[C@H]2[C@@H]1c1ccc(F)cc1)c1cc(C(F)(F)F)cc(C(F)(F)F)c1 [SERLOPITANT] , please. 30 µM

---

assay: Volume of distribution at steady state in monkey at 0.5 mg/kg, iv and 1 mg/kg, po; type: ADME, organism-based, Macaca mulatta; conditions: rhesus monkey, in vivo, read-out: Vdss
ASSAY_ENDPOINT: Vd (L/kg)
Unit L/kg implied. Number only.

Tell me the measured Vd of C[C@@H](O[C@H]1CC[C@@H]2CN(C3=CC(=O)CC3)C[C@H]2[C@@H]1c1ccc(F)cc1)c1cc(C(F)(F)F)cc(C(F)(F)F)c1 [SERLOPITANT] , please. 2

---

experiment: Plasma clearance in dog at 0.5 mg/kg, iv and 1 mg/kg, po; format: ADME, organism-based, Canis lupus familiaris
ASSAY_ENDPOINT: clearance

Tell me the measured clearance of `C[C@@H](O[C@H]1CC[C@@H]2CN(C3=CC(=O)CC3)C[C@H]2[C@@H]1c1ccc(F)cc1)c1cc(C(F)(F)F)cc(C(F)(F)F)c1` , please. 0.7 mL/min/kg

---

target: Substance-P receptor (Homo sapiens, UniProt P25103); experiment: Antagonist activity at human NK1 receptor expressed in CHO cells assessed as inhibition of substance P-induced IP1 formation at 100 nM; format: functional, cell-based; set-up: scale not given: the % may be the effect or the level left
Measured Activity, listed per entry for reference.
Unit % implied. Number only.

>>> print(df.to_string())
                                   compound  experimental_value
0  C[C@@H](O[C@H]1CC[C@@H]2CN(C3=CC(=O)CCC3)C[C@H]2[C@@H]1c1ccc(F)cc1)c1cc(C(F)(F)F)cc(C(F)(F)F)c1                   4

Tell me the measured Activity of `CC(=O)N1C[C@H]2CC[C@H](O[C@H](C)c3cc(C(F)(F)F)cc(C(F)(F)F)c3)[C@@H](c3ccc(F)cc3)[C@@H]2C1` , please. 40

Tell me the measured Activity of `C[C@@H](O[C@H]1CC[C@@H]2CN(C)C[C@H]2[C@@H]1c1ccc(F)cc1)c1cc(C(F)(F)F)cc(C(F)(F)F)c1` , please. 54

Tell me the measured Activity of `C[C@@H](O[C@H]1CC[C@@H]2CN(c3cnccn3)C[C@H]2[C@@H]1c1ccc(F)cc1)c1cc(C(F)(F)F)cc(C(F)(F)F)c1` , please. 79

Tell me the measured Activity of `CNC(=O)N1C[C@H]2CC[C@H](O[C@H](C)c3cc(C(F)(F)F)cc(C(F)(F)F)c3)[C@@H](c3ccc(F)cc3)[C@@H]2C1` , please. 58

Tell me the measured Activity of `C[C@@H](O[C@H]1CC[C@@H]2CNC[C@H]2[C@@H]1c1ccc(F)cc1)c1cc(C(F)(F)F)cc(C(F)(F)F)c1` , please. 44

Tell me the measured Activity of `CC1=C(N2C[C@H]3CC[C@H](O[C@H](C)c4cc(C(F)(F)F)cc(C(F)(F)F)c4)[C@@H](c4ccc(F)cc4)[C@@H]3C2)CCC1=O` , please. 9

Tell me the measured Activity of C[C@@H](O[C@H]1CC[C@@H]2CN(C3=CC(=O)CC3)C[C@H]2[C@@H]1c1ccc(F)cc1)c1cc(C(F)(F)F)cc(C(F)(F)F)c1 [SERLOPITANT] , please. 5

---

molecular target: UniProtKB P25103; experiment: Displacement of [125I]substance P human recombinant NK1 receptor expressed in CHO cells in absence of human serum albumin
ASSAY_ENDPOINT: IC50
Record the result as a number with its unit.

>>> df
                                   molecule  experimental_value
0  CNC(=O)N1C[C@H]2CC[C@H](O[C@H](C)c3cc(C(F)(F)F)cc(C(F)(F)F)c3)[C@@H](c3ccc(F)cc3)[C@@H]2C1             0.09 nM
1  C[C@@H](O[C@H]1CC[C@@H]2CN(C3=CC(=O)CC3)C[C@H]2[C@@H]1c1ccc(F)cc1)c1cc(C(F)(F)F)cc(C(F)(F)F)c1             0.06 nM
2  CC1=C(N2C[C@H]3CC[C@H](O[C@H](C)c4cc(C(F)(F)F)cc(C(F)(F)F)c4)[C@@H](c4ccc(F)cc4)[C@@H]3C2)CCC1=O              0.1 nM

// switching to the query compound
Tell me the measured IC50 of `C[C@@H](O[C@H]1CC[C@@H]2CNC[C@H]2[C@@H]1c1ccc(F)cc1)c1cc(C(F)(F)F)cc(C(F)(F)F)c1` , please. 0.15 nM

---

Target protein (sequence): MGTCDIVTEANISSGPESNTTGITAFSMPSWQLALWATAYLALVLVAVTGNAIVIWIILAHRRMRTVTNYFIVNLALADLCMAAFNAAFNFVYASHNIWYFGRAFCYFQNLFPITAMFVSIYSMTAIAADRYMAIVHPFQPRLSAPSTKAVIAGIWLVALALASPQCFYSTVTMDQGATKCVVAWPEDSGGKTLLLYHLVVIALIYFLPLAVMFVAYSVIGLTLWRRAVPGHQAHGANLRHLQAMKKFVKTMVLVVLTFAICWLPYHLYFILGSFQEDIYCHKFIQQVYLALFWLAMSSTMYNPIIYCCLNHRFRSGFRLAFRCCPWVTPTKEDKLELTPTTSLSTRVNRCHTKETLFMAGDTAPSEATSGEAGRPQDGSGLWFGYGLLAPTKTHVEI
ASSAY_ENDPOINT: pKi
In simple prose, pKi is minus the logarithm base ten of a concentration in moles per litre.

Tell me the measured pKi of C[C@@H](O[C@H]1CC[C@@H]2CN(C3=CC(=O)CC3)C[C@H]2[C@@H]1c1ccc(F)cc1)c1cc(C(F)(F)F)cc(C(F)(F)F)c1 [SERLOPITANT] , please. 5.62

---

assay: Plasma clearance in rat at 1 mg/kg, iv and 2 mg/kg, po; type: ADME, organism-based
ASSAY_ENDPOINT: clearance (mL/min/kg)
Unit mL/min/kg implied. Number only.

Tell me the measured clearance of `C[C@@H](O[C@H]1CC[C@@H]2CN(C3=CC(=O)CC3)C[C@H]2[C@@H]1c1ccc(F)cc1)c1cc(C(F)(F)F)cc(C(F)(F)F)c1` , please. 0.7
